Values from the supplement of paper PMC7600603

# Tested on: DLD1 NRF2-GOF
# Test name: TC50 cytotoxicity; higher = less toxic
# Condition parameters: 72 h; CellTox Green cytotoxicity
Readout name: TC50 cytotoxicity

Report TC50 cytotoxicity for each item below.
1. COc1cc(OC2CCN(C)CC2)ccc1Nc1ncc2c(n1)n(C1CCCC1)c(=O)n2C [AZ 3146]
2. CN1CC[C@H](c2c(O)cc(O)c3c(=O)cc(-c4ccccc4Cl)oc23)[C@H](O)C1 [Alvocidib]
3. Cc1cnc(NC(=O)Nc2cc(Br)c(C)cc2OC[C@@H]2CNCCO2)cn1 [Rabusertib]
4. CC(O)(CS(=O)(=O)c1ccc(F)cc1)C(=O)Nc1ccc(C#N)c(C(F)(F)F)c1 (configuration not stated) [Bicalutamide]
5. Cc1sc2c(c1C)C(c1ccc(Cl)cc1)=N[C@@H](CC(=O)OC(C)(C)C)c1nnc(C)n1-2 [JQ1]
6. CC(O)c1cc(C(=O)N[C@@H](C)Cn2ccc(-c3ccc(C#N)c(Cl)c3)n2)n[nH]1 (some centres not stated) [ODM-201]
7. O=C(O)c1ccc(-c2c[nH]c3ncc(-c4ccccc4)cc23)cc1C1CCCC1

output:
1. > 10 µM
2. > 10 µM
3. > 1 µM
4. > 10 µM
5. > 10 µM
6. > 2.5 µM
7. 3.47 µM

Report TC50 cytotoxicity for each item below.
1. Cc1cc(Nc2cc(CN3CCOCC3)c3nc(C)c(Cc4ccc(Cl)cc4F)n3n2)n[nH]1 [Gandotinib]
2. CC(C)(C)C[C@@H]1N[C@@H](C(=O)N[C@H]2CC[C@H](O)CC2)[C@H](c2cccc(Cl)c2F)[C@]12C(=O)Nc1cc(Cl)ccc12
3. Cc1cc(-c2ncc(CC(=O)Nc3ccc(-c4cnccn4)cn3)cc2C)ccn1 [NVP-LGK974]
4. Cc1c(-c2ccc(N3CCc4cccc(C(=O)Nc5nc6ccccc6s5)c4C3)nc2C(=O)O)cnn1CC12CC3CC(CC(C3)C1)C2
5. Cn1c(=O)n(-c2ccc(C(C)(C)C#N)cc2)c2c3cc(-c4cnc5ccccc5c4)ccc3ncc21 [Dactolisib]

output:
["1.62 µM", "> 10 µM", "> 10 µM", "> 1 µM", "> 1 µM"]

Report TC50 cytotoxicity for each item below.
1. C#Cc1cccc(Nc2ncnc3cc(OCCOC)c(OCCOC)cc23)c1 [Erlotinib]
2. Cn1cc(CNCC2CCN(c3ncc(C(=O)NO)cn3)CC2)c2ccccc21 [Quisinostat]
3. CC#CC(=O)N1CC[C@@H](n2c(=O)n(-c3ccc(Oc4ccccc4)cc3)c3c(N)ncnc32)C1 [ONO-4059]
4. C=CC(=O)Nc1cc2c(Nc3ccc(F)c(Cl)c3)ncnc2cc1OCCCN1CCOCC1 [Canertinib]
5. COCC1(CO)C(=O)C2CCN1CC2 (configuration not stated) [APR-246]

output:
["> 10 µM", "> 1 µM", "> 1 µM", "3.21 µM", "> 10 µM"]
